# TARGET_DESC: proteasome in Molt-4 cells (human leukemia) (Homo sapiens, UniProt P20618+P28074)
# Sequence (P28074 60-263): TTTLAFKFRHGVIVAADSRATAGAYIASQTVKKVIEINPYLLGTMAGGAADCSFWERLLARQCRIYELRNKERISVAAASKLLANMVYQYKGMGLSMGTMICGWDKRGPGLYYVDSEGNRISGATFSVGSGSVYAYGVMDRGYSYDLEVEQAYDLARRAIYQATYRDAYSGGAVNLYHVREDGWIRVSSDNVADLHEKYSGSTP
# Sequence (P20618 29-241): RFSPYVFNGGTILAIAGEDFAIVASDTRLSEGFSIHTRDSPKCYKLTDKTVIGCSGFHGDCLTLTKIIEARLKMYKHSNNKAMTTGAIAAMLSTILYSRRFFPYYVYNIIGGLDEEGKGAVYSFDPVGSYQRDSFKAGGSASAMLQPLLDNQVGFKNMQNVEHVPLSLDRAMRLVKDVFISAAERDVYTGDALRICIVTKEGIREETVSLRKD
# Format: cell-based
# SETTINGS: assay of Example E, inhibition of MOLT4; read-out: MOLT4 (EC50)
pEC50: −log10 of the molar value. Counter-ions that a name gives are not always drawn.
pEC50 values by entry
READOUT: pEC50

[[record]]
compound = "CCCCc1ccc(C(=O)N[C@@H](CNC(=O)c2cnccn2)C(=O)N[C@@H](CC(C)C)B2O[C@@H]3C[C@@H]4C[C@@H](C4(C)C)[C@]3(C)O2)cc1"
readout = "pEC50"
experimental_value = "> 6.70"

[[record]]
compound = "Cc1nc(C)c(C(=O)N[C@@H](CCCNC(=N)N[N+](=O)[O-])C(=O)N[C@@H](CC(C)C)B(O)O)s1"
readout = "pEC50"
experimental_value = "< 5.00"

[[record]]
compound = "COCCOCCOCC(=O)N[C@@H](CCCNC(=N)N[N+](=O)[O-])C(=O)N[C@@H](CC(C)C)B1O[C@@H]2C[C@@H]3C[C@@H](C3(C)C)[C@]2(C)O1"
readout = "pEC50"
experimental_value = "5.00 to 5.70"

[[record]]
compound = "CC(C)C[C@H](NC(=O)[C@H](CCCNC(=N)N[N+](=O)[O-])NC(=O)Cn1cnnn1)B(O)O"
readout = "pEC50"
experimental_value = "< 5.00"

[[record]]
compound = "CCS(=O)(=O)NCCCCCCCC(=O)N[C@@H](CCCNC(=N)N[N+](=O)[O-])C(=O)N[C@@H](CC(C)C)B1O[C@@H]2C[C@@H]3C[C@@H](C3(C)C)[C@]2(C)O1"
readout = "pEC50"
experimental_value = "5.00 to 5.70"

[[record]]
compound = "CCc1ccc(OCC(=O)N[C@@H](CCCNC(=N)N[N+](=O)[O-])C(=O)N[C@@H](CC(C)C)B(O)O)cc1"
readout = "pEC50"
experimental_value = "5.00 to 5.70"

[[record]]
compound = "CCc1ccc(CCC(=O)N[C@@H](CCCNC(=N)N[N+](=O)[O-])C(=O)N[C@@H](CC(C)C)B(O)O)cc1"
readout = "pEC50"
experimental_value = "5.00 to 5.70"

[[record]]
compound = "CC(C)C[C@H](NC(=O)[C@H](CCCNC(=N)N[N+](=O)[O-])NC(=O)CCCCc1ccccc1)B1O[C@@H]2C[C@@H]3C[C@@H](C3(C)C)[C@]2(C)O1"
readout = "pEC50"
experimental_value = "> 6.70"

[[record]]
compound = "CC(C)C[C@H](NC(=O)[C@H](CCCNC(=N)N[N+](=O)[O-])NC(=O)CCCc1ccccc1)B(O)O"
readout = "pEC50"
experimental_value = "5.00 to 5.70"

[[record]]
compound = "CCCCc1ccc(C(=O)N[C@@H](CNS(=O)(=O)c2cn(C)cn2)C(=O)N[C@@H](CC(C)C)B(O)O)cc1"
readout = "pEC50"
experimental_value = "5.70 to 6.70"

[[record]]
compound = "CCCCc1ccc(C(=O)N[C@@H](CNC(=O)c2ccc(-n3cncn3)cc2)C(=O)N[C@@H](CC(C)C)B(O)O)cc1 [E.5.40, hydrochloride]"
readout = "pEC50"
experimental_value = "> 6.70"

[[record]]
compound = "CCCCc1ccc(C(=O)N[C@@H](CNC(=O)c2cnccn2)C(=O)N[C@@H](CC(C)C)B(O)O)cc1"
readout = "pEC50"
experimental_value = "> 6.70"

[[record]]
compound = "CC(C)C[C@H](NC(=O)[C@H](CCCNC(=N)N[N+](=O)[O-])NC(=O)c1ccc2ccccc2c1)B(O)O"
readout = "pEC50"
experimental_value = "5.70 to 6.70"

[[record]]
compound = "CC(=O)N[C@@H](CCCNC(=N)N[N+](=O)[O-])C(=O)N[C@@H](CC(C)C)B(O)O"
readout = "pEC50"
experimental_value = "< 5.00"

[[record]]
compound = "CC(C)C[C@H](NC(=O)[C@H](CCCNC(=N)N[N+](=O)[O-])NC(=O)C(CCCCCCCCC#N)C1CCCC1)B(O)O (mixture of isomers)"
readout = "pEC50"
experimental_value = "5.70 to 6.70"

[[record]]
compound = "CCCCCC/C=C/C(=O)N[C@@H](CCCNC(=N)N[N+](=O)[O-])C(=O)N[C@@H](CC(C)C)B1O[C@@H]2C[C@@H]3C[C@@H](C3(C)C)[C@]2(C)O1"
readout = "pEC50"
experimental_value = "> 6.70"

[[record]]
compound = "CC(=O)N1CCC[C@H]1C(=O)N[C@@H](CCCNC(=N)N[N+](=O)[O-])C(=O)N[C@@H](CC(C)C)B(O)O"
readout = "pEC50"
experimental_value = "< 5.00"

[[record]]
compound = "CCCCCCCCCC(=O)N[C@@H](CNC(=O)CCCCC)C(=O)N[C@@H](CC(C)C)B(O)O"
readout = "pEC50"
experimental_value = "> 6.70"

[[record]]
compound = "CCCCc1ccc(C(=O)N[C@@H](CCCNC(N)=O)C(=O)N[C@@H](CC(C)C)B(O)O)cc1"
readout = "pEC50"
experimental_value = "5.00 to 5.70"

[[record]]
compound = "CCCCc1ccc(C(=O)N[C@@H](CNC(=O)OCc2ccccc2)C(=O)N[C@@H](CC(C)C)B(O)O)cc1"
readout = "pEC50"
experimental_value = "> 6.70"

[[record]]
compound = "CCCCc1ccc(C(=O)N[C@@H](CNC(=O)c2ccc(S(C)(=O)=O)cc2)C(=O)N[C@@H](CC(C)C)B(O)O)cc1"
readout = "pEC50"
experimental_value = "> 6.70"

[[record]]
compound = "CC(C)C[C@H](NC(=O)[C@@H](NC(=O)c1ccc2ccccc2c1Br)[C@@H](C)O)B(O)O"
readout = "pEC50"
experimental_value = "> 6.70"

[[record]]
compound = "CCCCCCCCCCCCC(=O)N[C@@H](CCCNC(=N)N[N+](=O)[O-])C(=O)N[C@@H](CC(C)C)B1O[C@@H]2C[C@@H]3C[C@@H](C3(C)C)[C@]2(C)O1"
readout = "pEC50"
experimental_value = "> 6.70"

[[record]]
compound = "CC(C)C[C@H](NC(=O)[C@H](CCCNC(=N)N[N+](=O)[O-])NC(=O)CS(=O)(=O)c1ccccc1)B1O[C@@H]2C[C@@H]3C[C@@H](C3(C)C)[C@]2(C)O1"
readout = "pEC50"
experimental_value = "> 6.70"

[[record]]
compound = "CC(C)C[C@H](NC(=O)[C@H](CCCNC(=N)N[N+](=O)[O-])NC(=O)CSCc1ccccc1)B(O)O"
readout = "pEC50"
experimental_value = "< 5.00"

[[record]]
compound = "CC(C)C[C@H](NC(=O)[C@H](CNS(=O)(=O)c1ccc(F)cc1)NC(=O)c1ccc(Oc2ccccc2)cc1)B(O)O"
readout = "pEC50"
experimental_value = "5.70 to 6.70"

